assay: Aqueous solubility of the compound; type: physicochemical
observed-property: solubility (µg/mL)
Answers are plain numbers, in µg/mL.

Request: Tell me measured solubility for C[C@@]12OC(=O)O[C@@H]1[C@@H](COP1(=O)OCC[C@@H](c3ccncc3)O1)O[C@H]2n1cnc2c(N)ncnc21 (stereo partly specified) please.
Response: 450

###

tested on: Hepatocyte; test: Activation of prodrug to corresponding nucleoside triphosphate in Sprague-Dawley rat hepatocytes at 25 uM after 2 hrs; assay type: cell-based
observed-property: log10 Activity (log10 of the value in nmol/g)
Log scale reminder: Activity in nmol/g, then log10 taken.

compound="C[C@@]1(O)[C@H](O)[C@@H](COP2(=O)OCCC(c3ccc(C#N)cc3)O2)O[C@H]1n1cnc2c(N)ncnc21 (stereo partly drawn)" value_reported=1.61
compound="CC(C)[C@H](N)C(=O)O[C@@H]1[C@@H](COP2(=O)OCCC(c3cccc(Cl)c3)O2)O[C@@H](n2cnc3c(N)ncnc32)[C@]1(C)O (stereo partly drawn)" value_reported=2.07

Please supply log10 Activity for each of the following items, keeping them in order.
1. C[C@@]1(O)[C@H](O)[C@@H](COP2(=O)OCCC(c3cccc(F)c3F)O2)O[C@H]1n1cnc2c(N)ncnc21 (stereo partly drawn)
2. C[C@@]12OC(=O)O[C@@H]1[C@@H](COP1(=O)OCCC(c3ccc(Cl)c(Cl)c3)O1)O[C@H]2n1cnc2c(N)ncnc21 (stereo partly drawn)
3. C[C@@]1(O)[C@H](O)[C@@H](COP2(=O)OCCC(c3ccc(Cl)c(F)c3)O2)O[C@H]1n1cnc2c(N)ncnc21 (stereo partly drawn)
4. C[C@@]1(O)[C@H](O)[C@@H](COP2(=O)OCCC(c3cncc(Br)c3)O2)O[C@H]1n1cnc2c(N)ncnc21 (stereo partly drawn)
5. C[C@@]1(O)[C@H](O)[C@@H](COP2(=O)OCCC(c3cccc(C#N)c3)O2)O[C@H]1n1cnc2c(N)ncnc21 (stereo partly drawn)
6. C[C@@]1(O)[C@H](O)[C@@H](COP2(=O)OCCC(c3cccc(F)c3)O2)O[C@H]1n1cnc2c(N)ncnc21 (stereo partly drawn)
7. C[C@@]1(O)[C@H](O)[C@@H](COP2(=O)OCC[C@@H](c3ccncc3)O2)O[C@H]1n1cnc2c(N)ncnc21 (single isomer, unassigned)
8. CCCCCOC(=O)Nc1ncnc2c1ncn2[C@@H]1O[C@H](COP2(=O)OCCC(c3cccc(Cl)c3)O2)[C@@H](O)[C@@]1(C)O (stereo partly drawn)

Response:
1: 2.51; 2: 1.99; 3: 2.52; 4: 2.29; 5: 2.14; 6: 2.52; 7: 1.67; 8: 1.86

###

tested on: Hepatocyte; test: Activation of prodrug to corresponding nucleoside triphosphate in Sprague-Dawley rat hepatocytes at 25 uM after 2 hrs; format: cell-based
observed-property: Activity (nmol/g)
Numbers only, in nmol/g.

Answered examples (8):
compound="C[C@@]1(O)[C@H](O)[C@@H](COP2(=O)OCCC(c3cccc(Br)c3)O2)O[C@H]1n1cnc2c(N)ncnc21 (stereo partly drawn)" reading_unit=nmol/g value_reported=99
compound="C[C@@]1(O)[C@H](O)[C@@H](COP2(=O)OCCC(c3cccnc3)O2)O[C@H]1n1cnc2c(N)ncnc21 (stereo partly drawn)" reading_unit=nmol/g value_reported=73
compound=C[C@@]1(O)[C@H](O)[C@@H](CO)O[C@H]1n1cnc2c(N)ncnc21 reading_unit=nmol/g value_reported=209
compound="C[C@@]12OC(=O)O[C@@H]1[C@@H](COP1(=O)OCC[C@@H](c3ccncc3)O1)O[C@H]2n1cnc2c(N)ncnc21 (stereo partly drawn)" reading_unit=nmol/g value_reported=185
compound="Cc1cncc(C2CCOP(=O)(OC[C@H]3O[C@@H](n4cnc5c(N)ncnc54)[C@](C)(O)[C@@H]3O)O2)c1 (stereo partly drawn)" reading_unit=nmol/g value_reported=73
compound="C[C@@]1(O)[C@H](O)[C@@H](COP2(=O)OCCC(c3cc(F)ccc3F)O2)O[C@H]1n1cnc2c(N)ncnc21 (stereo partly drawn)" reading_unit=nmol/g value_reported=139
compound="C[C@@]1(O)[C@H](O)[C@@H](COP2(=O)OCCC(c3cc(F)cc(F)c3)O2)O[C@H]1n1cnc2c(N)ncnc21 (stereo partly drawn)" reading_unit=nmol/g value_reported=250
compound="C[C@@]1(O)[C@H](O)[C@@H](COP2(=O)OCCC(c3ccccn3)O2)O[C@H]1n1cnc2c(N)ncnc21 (stereo partly drawn)" reading_unit=nmol/g value_reported=93

Please supply Activity for each of the following items, keeping them in order.
1. C[C@@]1(O)[C@H](O)[C@@H](COP2(=O)OCC[C@@H](c3cccc(Cl)c3)O2)O[C@H]1n1cnc2c(N)ncnc21 (stereo partly drawn)
2. C[C@@]1(O)[C@H](O)[C@@H](COP2(=O)OCCC(c3cc(F)ccc3Br)O2)O[C@H]1n1cnc2c(N)ncnc21 (stereo partly drawn)
3. C[C@@]12OC(=O)O[C@@H]1[C@@H](COP1(=O)OCCC(c3cc(F)cc(F)c3)O1)O[C@H]2n1cnc2c(N)ncnc21 (stereo partly drawn)
4. C[C@@]12OC(=O)O[C@@H]1[C@@H](COP1(=O)OCCC(c3cc(Cl)cc(Cl)c3)O1)O[C@H]2n1cnc2c(N)ncnc21 (stereo partly drawn)
5. C[C@@]1(O)[C@H](O)[C@@H](COP2(=O)OCCC(c3ccc(Cl)c(Cl)c3)O2)O[C@H]1n1cnc2c(N)ncnc21 (stereo partly drawn)
6. C[C@@]1(O)[C@H](O)[C@@H](COP2(=O)OCCC(c3ccccc3Br)O2)O[C@H]1n1cnc2c(N)ncnc21 (stereo partly drawn)
7. C[C@@]1(O)[C@H](O)[C@@H](COP2(=O)OCCC(c3cc(Cl)cc(Cl)c3)O2)O[C@H]1n1cnc2c(N)ncnc21 (stereo partly drawn)

Response:
[389, 72, 113, 49, 396, 122, 585]

Please supply Activity for each of the following items, keeping them in order.
1. COc1cc(C2CCOP(=O)(OC[C@H]3O[C@@H](n4cnc5c(N)ncnc54)[C@](C)(O)[C@@H]3O)O2)ccn1 (stereo partly drawn)
2. C[C@@]12OC(=O)O[C@@H]1[C@@H](COP1(=O)OCC[C@@H](c3cccc(Cl)c3)O1)O[C@H]2n1cnc2c(N)ncnc21 (stereo partly drawn)
3. C[C@@]12OC(=O)O[C@@H]1[C@@H](COP1(=O)OCCC(c3cccc(F)c3)O1)O[C@H]2n1cnc2c(N)ncnc21 (stereo partly drawn)

Response:
93
296
313
